Species: Rattus norvegicus
Assay Name: Open TG-GATES - Regimen: Single
Type: toxicity, organism-based, Sprague-Dawley
Design: regimen Single, gender Male, age 6 weeks
Condition Details: in vivo, po, 300 mg/kg, 24 h, tissue Blood, route gavage, dose level Middle
Reported Property: Eos (%)
Number only, in %; omit the unit.

| Smiles Representation | Eos, % |
| --- | --- |
| O=C(OC[C@H]1O[C@@H](OC(=O)c2cc(O)c(O)c(OC(=O)c3cc(O)c(O)c(O)c3)c2)[C@H](OC(=O)c2cc(O)c(O)c(OC(=O)c3cc(O)c(O)c(O)c3)c2)[C@@H](OC(=O)c2cc(O)c(O)c(OC(=O)c3cc(O)c(O)c(O)c3)c2)[C@@H]1OC(=O)c1cc(O)c(O)c(OC(=O)c2cc(O)c(O)c(O)c2)c1)c1cc(O)c(O)c(OC(=O)c2cc(O)c(O)c(O)c2)c1 | 0.8 |
| Cc1nnc2n1-c1ccc(Cl)cc1C(c1ccccc1Cl)=NC2 | 1 |
| COC(=O)C1=C(C)NC(C)=C(C(=O)OC)C1c1ccccc1[N+](=O)[O-] | 1 |
| CNC(=C[N+](=O)[O-])NCCSCc1ccc(CN(C)C)o1 | 1 |

Eos reported for this compound CN/C(=N/CCSCc1nc[nH]c1C)NC#N : 0.8
